- MEASURED TARGET: Aldo-keto reductase family 1 member B1 (Rattus norvegicus, UniProt P07943); also: in other assays of this panel Not Active means under 50% inhibition at 10 µM;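 also: inhibition of aldose reductase enzyme activity, measured with DL-glyceraldehyde as the substrate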
- ASSAY COMMENT: biochemical
- Format: tissue-based, Lens of camera-type eye
PROPERTY NAME: IC50

// below: answered compounds
- COMPOUND: "C[C@@H](N)[C@H]1CC[C@H](C(=O)Nc2ccncc2)CC1 [Y-27632]"
  MEASURED TARGET: "Aldo-keto reductase family 1 member B1 (Rattus norvegicus, UniProt P07943)"
  IC50: "Not Active"
- COMPOUND: "CNC(=C[N+](=O)[O-])NCCSCc1ccc(CN(C)C)o1 [RANITIDINE]"
  MEASURED TARGET: "Aldo-keto reductase family 1 member B1 (Rattus norvegicus, UniProt P07943)"
  IC50: "Not Active"
- COMPOUND: "ClC(Cl)Cl [CHLOROFORM]"
  MEASURED TARGET: "Aldo-keto reductase family 1 member B1 (Rattus norvegicus, UniProt P07943)"
  IC50: "Not Active"
- COMPOUND: "S=C=Nc1cccc2ccccc12 [1-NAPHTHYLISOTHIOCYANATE]"
  MEASURED TARGET: "Aldo-keto reductase family 1 member B1 (Rattus norvegicus, UniProt P07943)"
  IC50: "Not Active"
- COMPOUND: "Cc1ccc(S(=O)(=O)NC(=O)NN2CC3CCCC3C2)cc1 (stereo unspecified) [GLICLAZIDE]"
  MEASURED TARGET: "Aldo-keto reductase family 1 member B1 (Rattus norvegicus, UniProt P07943)"
  IC50: "Not Active"
- COMPOUND: "CC(C)[C@H]1CC[C@H](C(=O)N[C@H](Cc2ccccc2)C(=O)O)CC1 [NATEGLINIDE]"
  MEASURED TARGET: "Aldo-keto reductase family 1 member B1 (Rattus norvegicus, UniProt P07943)"
  IC50: "Not Active"

Could you now look at the following compound, please?
What the record says about COC(=O)C1=C(C)NC(C)=C(C(=O)OCC(C)C)C1c1ccccc1[N+](=O)[O-] (stereo unspecified) [NISOLDIPINE] : IC50 is Not Active
